# System: NAMPT (Homo sapiens, UniProt P43490)
# Construct: purchased Abcam ab221819
# Sequence (P43490 whole entry): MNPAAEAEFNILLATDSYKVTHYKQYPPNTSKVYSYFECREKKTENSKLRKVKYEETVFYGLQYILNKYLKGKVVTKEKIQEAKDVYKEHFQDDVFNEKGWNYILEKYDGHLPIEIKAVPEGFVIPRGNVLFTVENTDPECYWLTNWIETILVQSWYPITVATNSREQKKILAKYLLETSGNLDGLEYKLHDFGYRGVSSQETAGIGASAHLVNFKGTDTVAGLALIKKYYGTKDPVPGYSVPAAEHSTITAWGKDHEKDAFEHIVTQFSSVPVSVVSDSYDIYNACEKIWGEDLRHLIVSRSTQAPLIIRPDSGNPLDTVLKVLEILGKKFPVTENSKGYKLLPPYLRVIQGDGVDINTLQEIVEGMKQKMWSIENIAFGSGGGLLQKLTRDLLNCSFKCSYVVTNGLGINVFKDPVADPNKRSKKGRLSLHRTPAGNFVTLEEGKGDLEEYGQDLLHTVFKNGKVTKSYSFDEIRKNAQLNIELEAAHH
# Assay Method Text: NAMPT Activity Assay (Abcam #ab221819)
# Type: biochemical
# Assay Setup: purified NAMPT, percent inhibition from OD450 nm; compound concentration not given
Endpoint Label: NAMPT Inhibition Code*

> print(dat)
                                   molecule           value.reported
1  CC(=O)N(CC1CC1)c1ccc(-c2ccc(C(=O)NCCCc3cn[nH]c3)cn2)cc1C(F)(F)F [I-T2304]  C (C = ≥66% inhibition)
2  CC(=O)N(CC1CC1)c1ccc(-c2ccc(C(=O)NCCc3c[nH]cn3)cn2)cc1Cl [I-T2150]  C (C = ≥66% inhibition)
3  CC(=O)N(CC1CC1)c1ccc(-c2ccc(C(=O)NCCc3cccc(F)c3)cn2)cc1Cl [I-T2342]  C (C = ≥66% inhibition)
4  COC(=O)c1cc(-c2ccc(C(=O)NCCCn3ccnc3)cn2)ccc1N(CC1CC1)C(C)=O [I-T2300]  C (C = ≥66% inhibition)

---

# System: NAMPT (Homo sapiens)
# Construct: purchased Abcam ab221819
# Assay Method Text: NAMPT Activity Assay (Abcam #ab221819)
# Format: biochemical
# Assay Setup: purified NAMPT, percent inhibition from OD450 nm; compound concentration not given
Endpoint Label: NAMPT Inhibition Code*

> print(dat)
                                   compound          endpoint.label            value.reported
1  CC(=O)N(CC1CC1)c1ccc(-c2ccc(C(=O)Nc3ccc4[nH]cnc4c3)cn2)cc1Cl  NAMPT Inhibition Code*   C (C = ≥66% inhibition)
2  CC(=O)N(CC1CC1)c1ccc(-c2ccc(NC(=O)/C=C/c3cccnc3)cn2)cc1Cl  NAMPT Inhibition Code*   C (C = ≥66% inhibition)
3  CC(=O)N(CC1CC1)c1ccc(-c2ccc(C(=O)NCC3CCOC3)cn2)cc1Cl (centres unmarked)  NAMPT Inhibition Code*  A (*A = <33% inhibition)
4  COC(=O)c1cc(-c2ccc(C(=O)NCCCc3cc[nH]n3)cn2)ccc1N(CC1CC1)C(C)=O  NAMPT Inhibition Code*   C (C = ≥66% inhibition)
5  CC(=O)N(CC1CC1)c1ccc(-c2ccc(C(=O)NCc3ccc(C#N)nc3)cn2)cc1Cl  NAMPT Inhibition Code*   C (C = ≥66% inhibition)
6  CC(=O)N(CC(F)F)c1ccc(-c2ccc(C(=O)NCCCc3cc[nH]n3)cn2)cc1Cl  NAMPT Inhibition Code*   C (C = ≥66% inhibition)

Hi! What's the reported NAMPT Inhibition Code* for CC(=O)N(CC1CC1)c1ccc(-c2ccc(C(=O)NCc3ccccc3)cn2)cc1Cl on NAMPT (Homo sapiens)?
C (C = ≥66% inhibition)

Next compound: CC(=O)N(CC1COC1)c1ccc(-c2ccc(C(=O)NCc3ccccc3)cn2)cc1Cl
A (*A = <33% inhibition)

---

# System: NAMPT (Homo sapiens, UniProt P43490)
# Construct: purchased Abcam ab221819
# Assay Method Text: NAMPT Activity Assay (Abcam #ab221819)
# Type: biochemical
# Assay Setup: purified NAMPT, percent inhibition from OD450 nm; compound concentration not given
Endpoint Label: NAMPT Inhibition Code*

Examples with their reported NAMPT Inhibition Code* follow.
> print(dat)
                                   compound                                system            value.reported
1  CC(=O)N(CC(F)F)c1ccc(-c2ccc(C(=O)NCCc3cccnc3)cn2)cc1Cl  NAMPT (Homo sapiens, UniProt P43490)   C (C = ≥66% inhibition)
2  CC(=O)N(CC1CC1)c1ccc(-c2ccc(C(=O)NCCc3cccnc3)cn2)cc1F  NAMPT (Homo sapiens, UniProt P43490)   C (C = ≥66% inhibition)
3  CC(=O)N(CC1CC1)c1ccc(-c2ccc(C(=O)NCc3cncs3)cn2)cc1Cl  NAMPT (Homo sapiens, UniProt P43490)  A (*A = <33% inhibition)
4  CC(=O)N(CC1CC1)c1ccc(-c2ccc(C(=O)NCc3ncco3)cn2)cc1Cl  NAMPT (Homo sapiens, UniProt P43490)  A (*A = <33% inhibition)
5  CC(=O)N(CC1CC1)c1ccc(-c2ccc(NC(=O)Cc3ccc(Cl)cc3)cn2)cc1Cl  NAMPT (Homo sapiens, UniProt P43490)   C (C = ≥66% inhibition)

I have this compound here, CC(=O)N(CC1CC1)c1ccc(-c2ccc(C(=O)NCCc3cccnc3)cn2)cc1C(F)(F)F , and I need its recorded NAMPT Inhibition Code*.
C (C = ≥66% inhibition)

Next compound: CC(=O)N(CC1CC1)c1ccc(-c2ccc(NC(=O)C3CC3c3cccnc3)cn2)cc1Cl (centres unmarked)
C (C = ≥66% inhibition)

Next compound: CC(=O)N(CC(F)F)c1ccc(-c2ccc(C(=O)NCCCc3cn[nH]c3)cn2)cc1Cl
C (C = ≥66% inhibition)

Next compound: CC(=O)N(CC1CC1)c1ccc(-c2ccc(NC(=O)/C=C/c3ccccc3)cn2)cc1Cl
C (C = ≥66% inhibition)

Next compound: CC(=O)N(CC(F)F)c1ccc(-c2ccc(NC(=O)/C=C/c3cccnc3)cn2)cc1Cl
C (C = ≥66% inhibition)

Next compound: CC(=O)N(CC1CC1)c1ccc(-c2ccc(C(=O)NCC3CCCC34CC4)cn2)cc1Cl (centres unmarked)
A (*A = <33% inhibition)

Next compound: CC(=O)N(CC1CC1)c1ccc(-c2ccc(C(=O)NCc3ccc(Br)nc3)cn2)cc1Cl
C (C = ≥66% inhibition)
